Measured values drawn from patent US20060257938A1 for this set.

# protocol: Probe fluorescence ratio response to linolenic acid relative to ADIFAB2
# Assay type: binding
# condition summary: response relative to ADIFAB2
// reported DR/DR LNA for each item listed
measured parameter: DR/DR LNA

INSERT INTO measurements (molecule, measured_parameter, result) VALUES
  ('36R, 72A (protein, listed as Rattus norvegicus, PEPTIDE (1)...(131) wild-type rat intestinal fatty acid binding protein) AFDGTWKVDRNENYEKFMEKMGINVVKRKLGAHDNRKLTITQEGNKFTVKESSNFRNIDVVFELGVDFAYSAADGTELTGTWTMEGNKLVGKFKRVDNGKELIAVREISGNELIQTYTYEGVEAKRIFKKE', 'DR/DR LNA', 1.17),
  ('68S, 72A (protein, listed as Rattus norvegicus, PEPTIDE (1)...(131) wild-type rat intestinal fatty acid binding protein) AFDGTWKVDRNENYEKFMEKMGINVVKRKLGAHDNLKLTITQEGNKFTVKESSNFRNIDVVFELGVDSAYSAADGTELTGTWTMEGNKLVGKFKRVDNGKELIAVREISGNELIQTYTYEGVEAKRIFKKE', 'DR/DR LNA', 0.14),
  ('55D1, 72A (protein, listed as Rattus norvegicus, PEPTIDE (1)...(131) wild-type rat intestinal fatty acid binding protein) AFDGTWKVDRNENYEKFMEKMGINVVKRKLGAHDNLKLTITQEGNKFTVKESSNDRNIDVVFELGVDFAYSAADGTELTGTWTMEGNKLVGKFKRVDNGKELIAVREISGNELIQTYTYEGVEAKRIFKKE', 'DR/DR LNA', 0.12),
  ('78I, 72A (protein, listed as Rattus norvegicus, PEPTIDE (1)...(131) wild-type rat intestinal fatty acid binding protein) AFDGTWKVDRNENYEKFMEKMGINVVKRKLGAHDNLKLTITQEGNKFTVKESSNFRNIDVVFELGVDFAYSAADGTEITGTWTMEGNKLVGKFKRVDNGKELIAVREISGNELIQTYTYEGVEAKRIFKKE', 'DR/DR LNA', 0.958),
  ('106V1, 72A (protein, listed as Rattus norvegicus, PEPTIDE (1)...(131) wild-type rat intestinal fatty acid binding protein) AFDGTWKVDRNENYEKFMEKMGINVVKRKLGAHDNLKLTITQEGNKFTVKESSNFRNIDVVFELGVDFAYSAADGTELTGTWTMEGNKLVGKFKRVDNGKELIAVVEISGNELIQTYTYEGVEAKRIFKKE', 'DR/DR LNA', 0.82),
  ('23K1, 72A (protein, listed as Rattus norvegicus, PEPTIDE (1)...(131) wild-type rat intestinal fatty acid binding protein) AFDGTWKVDRNENYEKFMEKMGKNVVKRKLGAHDNLKLTITQEGNKFTVKESSNFRNIDVVFELGVDFAYSAADGTELTGTWTMEGNKLVGKFKRVDNGKELIAVREISGNELIQTYTYEGVEAKRIFKKE', 'DR/DR LNA', 0.13);
